System: A431
Test: filipin (cholesterol) integrated intensity within LBPA endosomes, Z-score; higher = more cholesterol in LBPA endosomes
Details: compound concentration in added solution (µM; 5 µl added to 20 µl cells): 10; 18 h
Counter-ions that a name gives are not always drawn.
reported_property: filipin (z-score)

INSERT INTO assay_data (compound, reported_property, val) VALUES
  ('Clc1ccc(Nc2nnc(Cc3ccncc3)c3ccccc23)cc1', 'filipin (z-score)', -0.573),
  ('Oc1c(I)cc(Cl)c2cccnc12', 'filipin (z-score)', -0.526),
  ('O=C(CCCN1CCC(O)(c2ccc(Br)cc2)CC1)c1ccc(F)cc1', 'filipin (z-score)', 2.09),
  ('CCN(CC)CCNc1ccc(CO)c2sc3ccccc3c(=O)c12', 'filipin (z-score)', 2.68),
  ('CC(C)[N+](C)(CCOC(=O)C1c2ccccc2Oc2ccccc21)C(C)C [Propantheline bromide]', 'filipin (z-score)', -0.366),
  ('O=C(O)Cc1ccc(-c2ccccc2)cc1', 'filipin (z-score)', -0.525),
  ('CC(C)(Oc1ccc(CCNC(=O)c2ccc(Cl)cc2)cc1)C(=O)O [Bezafibrate]', 'filipin (z-score)', -0.456),
  ('O=C(Cn1ccnc1[N+](=O)[O-])NCCO', 'filipin (z-score)', -0.413),
  ('CCC(=O)[C@@]1(C)[C@H](C)C[C@H]2[C@@H]3CCC4=CC(=O)C=C[C@]4(C)[C@H]3[C@@H](O)C[C@@]21C [Rimexolone]', 'filipin (z-score)', -0.235),
  ('Clc1ccccc1CN1CCc2sccc2C1 [Ticlopidine hydrochloride]', 'filipin (z-score)', -0.515),
  ('CCCN(CCC)S(=O)(=O)c1ccc(C(=O)O)cc1', 'filipin (z-score)', -0.526),
  ('CC(c1cc2ccccc2s1)N(O)C(N)=O (stereo not given)', 'filipin (z-score)', -0.391),
  ('CCN1CCC[C@H]1CNC(=O)c1c(OC)ccc(Br)c1OC [Remoxipride Hydrochloride]', 'filipin (z-score)', -0.372),
  ('C[C@]12CC[C@@H]3c4ccc(O)cc4C[C@@H](CCCCCCCCC[S+]([O-])CCCC(F)(F)C(F)(F)F)[C@H]3[C@@H]1CC[C@@H]2O (stereo not given in full)', 'filipin (z-score)', 1.64),
  ('NS(=O)(=O)c1cc2c(cc1Cl)N=CNS2(=O)=O [Chlorothiazide]', 'filipin (z-score)', -0.472),
  ('COc1cc(OC)c(C(=O)CCCN2CCCC2)c(OC)c1 [Buflomedil hydrochloride]', 'filipin (z-score)', -0.503),
  ('NS(=O)(=O)c1cc2c(cc1Cl)NCNS2(=O)=O [Hydrochlorothiazide]', 'filipin (z-score)', -0.476),
  ('CN(C)[C@@H]1C(O)=C(C(N)=O)C(=O)[C@@]2(O)C(O)=C3C(=O)c4c(O)ccc(Cl)c4[C@@](C)(O)[C@H]3C[C@@H]12 [Chlortetracycline hydrochloride]', 'filipin (z-score)', -0.66),
  ('CN1C2CCCC1CC(NC(=O)c1nn(C)c3ccccc13)C2 (stereo not given)', 'filipin (z-score)', -0.132),
  ('Clc1ccc(COC(Cn2ccnc2)c2ccc(Cl)cc2Cl)cc1 (stereo not given) [Econazole nitrate]', 'filipin (z-score)', -0.0604),
  ('COc1ccc(CN(CCN(C)C)c2ccccn2)cc1 [Pyrilamine maleate]', 'filipin (z-score)', -0.426),
  ('N=C(N)NC(=O)Cc1c(Cl)cccc1Cl [Guanfacine hydrochloride]', 'filipin (z-score)', -0.462),
  ('NC(=O)N1c2ccccc2C=Cc2ccccc21 [Carbamazepine]', 'filipin (z-score)', -0.587),
  ('CN1CCCC(CC2c3ccccc3Sc3ccccc32)C1 (stereo not given) [Metixene hydrochloride]', 'filipin (z-score)', 3.15),
  ('Cc1ccc(-c2cc(C(F)(F)F)nn2-c2ccc(S(N)(=O)=O)cc2)cc1', 'filipin (z-score)', -0.205),
  ('CO[C@H]1C[C@H](O[C@H]2[C@H](C)[C@@H](O[C@@H]3O[C@H](C)C[C@H](N(C)C)[C@H]3OC(C)=O)[C@@H](C)C[C@@]3(CO3)C(=O)[C@H](C)[C@@H](OC(C)=O)[C@@H](C)[C@@H](C)OC(=O)[C@@H]2C)O[C@@H](C)[C@@H]1OC(C)=O', 'filipin (z-score)', -0.249),
  ('Cc1cccc(C)c1NC(=O)C(C)N (stereo not given) [Tocainide hydrochloride]', 'filipin (z-score)', -0.431),
  ('Cn1c([N+](=O)[O-])cnc1COC(N)=O', 'filipin (z-score)', -0.579),
  ('CCc1oc2ccccc2c1C(=O)c1cc(Br)c(O)c(Br)c1', 'filipin (z-score)', -0.47),
  ('Nc1ccn([C@@H]2CS[C@H](CO)O2)c(=O)n1', 'filipin (z-score)', -0.498),
  ('Nc1ncnc2c1ncn2C1OC(COP(=O)(O)O)C(O)C1O (stereo not given) [Adenosine 5''-monophosphate monohydrate]', 'filipin (z-score)', -0.493),
  ('COc1cc2nc(N3CCN(C(=O)C4COc5ccccc5O4)CC3)nc(N)c2cc1OC (stereo not given) [Doxazosin mesylate]', 'filipin (z-score)', 2.83),
  ('C[C@]12CC[C@H]3C(=CCc4cc(O)ccc43)[C@@H]1CCC2=O', 'filipin (z-score)', -0.251),
  ('OC(CCCN1CCCCC1)(c1ccccc1)c1ccccc1 [Diphenidol hydrochloride]', 'filipin (z-score)', -0.133),
  ('O=C(O)CNC(=O)C(CS)Cc1ccccc1 (stereo not given)', 'filipin (z-score)', -0.691);

====

Reported filipin (z-score) by item:
System: A431
Test: filipin (cholesterol) integrated intensity within LBPA endosomes, Z-score; higher = more cholesterol in LBPA endosomes
Conditions: compound concentration in added solution (µM; 5 µl added to 20 µl cells): 10; 18 h
Structures can show the parent of a compound that is named as a salt.
reported_property: filipin (z-score)

INSERT INTO assay_data (compound, val) VALUES
  ('CCCc1ncc(C[n+]2ccccc2C)c(N)n1 [Amprolium hydrochloride]', -0.483),
  ('NC[C@@H]1O[C@@H](O[C@H]2[C@H](O)[C@@H](O[C@H]3O[C@H](CO)[C@@H](O)[C@H](N)[C@H]3O)[C@H](N)C[C@@H]2N)[C@@H](O)[C@H](O)[C@H]1O [Kanamycin A sulfate]', -0.515),
  ('CC(CN(C)C)CN1c2ccccc2CCc2ccccc21 (centres undefined) [Trimipramine maleate salt]', 2.57),
  ('CCCCCCCCNC(C)C(O)c1ccc(SC(C)C)cc1 (centres undefined)', 3.3);

====

Reported LBPA endosome anti-LBPA integrated intensity (z-score) by item:
System: A431
Assay: LBPA endosome anti-LBPA integrated intensity (sum per cell), Z-score; higher = more LBPA staining
Conditions: compound concentration in added solution (µM; 5 µl added to 20 µl cells): 10; 18 h
Where a name gives a salt, the structure may show the parent alone.
reported_property: LBPA endosome anti-LBPA integrated intensity (z-score)

INSERT INTO measurements (molecule, val) VALUES
  ('Clc1ccc2c(c1)C(N1CCNCC1)=Nc1ccccc1O2', 3.32),
  ('CN(CCCCCCCCCCN(C)C(=O)Oc1cccc([N+](C)(C)C)c1)C(=O)Oc1cccc([N+](C)(C)C)c1 [Demecarium bromide]', -0.223),
  ('Cc1cc(=O)oc2cc(O)ccc12', -0.504),
  ('Cc1cc(-n2c(=O)[nH]c(=O)n(C)c2=O)ccc1Oc1ccc(SC(F)(F)F)cc1', -0.328),
  ('CCOc1ccccc1OC(c1ccccc1)C1CNCCO1 (stereo not drawn) [Reboxetine mesylate]', -0.315),
  ('Nc1nc(N)nc(-c2cc(Cl)ccc2Cl)n1 [Irsogladine maleate]', -0.232),
  ('NNC(=O)c1ccncc1', -0.56),
  ('CN1CCN(CCCN2c3ccccc3Sc3ccc(S(=O)(=O)N(C)C)cc32)CC1 [Thioproperazine dimesylate]', 2.72),
  ('O=C(Nc1cccc2c(=O)cc(-c3nnn[nH]3)oc12)c1ccc(OCCCCc2ccccc2)cc1', -0.507),
  ('NS(=O)(=O)c1cc(Cl)c(Cl)c(S(N)(=O)=O)c1 [Dichlorphenamide]', -0.34),
  ('CN(C)CCOC(c1ccccc1)c1ccccc1.Cn1c(=O)c2[nH]c(Cl)nc2n(C)c1=O [Dimenhydrinate]', -0.457),
  ('CC[N+](C)(CC)CCC[n+]1c(-c2ccccc2)c2cc(N)ccc2c2ccc(N)cc21 [Propidium iodide]', -0.615),
  ('COc1ccc(-c2ccc(=N)n(CCCC(=O)O)n2)cc1 [Gabazine bromide]', -0.561),
  ('c1ccc2c(c1)CCCC2C1=NCCN1 (stereo not drawn) [Tetrahydrozoline hydrochloride]', -0.429),
  ('CN(C)CCOC(=O)COc1ccc(Cl)cc1 [Meclofenoxate hydrochloride]', -0.454),
  ('Cc1c(N)c(=O)n(-c2ccccc2)n1C', -0.478),
  ('CCCC1C(=O)N2C(N(C)C)=Nc3ccc(C)cc3N2C1=O (stereo not drawn)', -0.356),
  ('O=C1OC(CN2CCOCC2)CN1/N=C/c1ccc([N+](=O)[O-])o1 (stereo not drawn) [Furaltadone hydrochloride]', -0.539);
